- SYSTEM NAME: T1, human MYCT1 (hMYCT1) (human, UniProt Q8N699 1-235, limits assumed)
- T1 construct: also called MYC Target 1
- T1 sequence: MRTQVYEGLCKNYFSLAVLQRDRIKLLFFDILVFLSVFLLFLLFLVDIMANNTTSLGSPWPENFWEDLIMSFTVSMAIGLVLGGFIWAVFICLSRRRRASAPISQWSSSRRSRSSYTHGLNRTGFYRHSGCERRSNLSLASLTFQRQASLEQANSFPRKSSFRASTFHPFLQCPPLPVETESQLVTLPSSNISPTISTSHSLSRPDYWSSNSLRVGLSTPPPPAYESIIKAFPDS
- PROCEDURE DETAILS: SPR (Biacore 8K), antibody captured via anti-human Fc IgG, MYCT1 as analyte, steady-state affinity model
Below is a list of entries, each paired with its recorded Kd value.
Record the value in nM, omitting the unit from your answer.

BINDER: 2B4-z12-uIgG1K (antibody, V domains shown) VH: QVQLVQSGAEVKKPGASVKMSCKASGYTFTDYNMHWVRQAPGQGLEWMGYINPNNGGSSYNRKFKGRVTLTVDKSTRTAYMELRSLRSDDTAVYYCATRFDVWGQGTTVTVSS VL: DVVMTQSPLSLPVTLGQPASISCKSSQSLLFSDGKTYLNWLQQRPGQSPRRLIYLVSKLDSGVPDRFSGSGSGTDFTLKISRVEAEDVGVYYCWQGTHFPQTFGGGTKVEIK
Kd (nM): 428

BINDER: 2B4-z10-uIgG1K (antibody, V domains shown) VH: QVQLVQSGAEVKKPGASVKVSCKASGYTFTDYNMHWVRQAPGQGLEWMGYINPNNGGSSYNRKFKGRVTMTVDKSTRTAYMELRSLRSDDTAVYYCATRFDVWGQGTTVTVSS VL: DVVMTQSPLSLPVTLGQPASISCKSSQSLLFSDGKTYLNWLQQRPGQSPRRLIYLVSKLDSGVPDRFSGSGSGTDFTLKISRVEAEDVGVYYCWQGTHFPQTFGGGTKVEIK
Kd (nM): 456

Continue with the next binder.
Can you look up the measured Kd of 2B4-z14-uIgG1K (antibody, V domains shown) VH: EVQLQQSGPELVKPGASVKMSCKASGYTFTDYNMHWVRQSHGKGLEWIGYINPNNGGSSYNRKFKGKATLTVNKSSRSASMELRSLTSEDSAVYYCATRFDVWGTGTTVTVSS VL: DVVMTQSPLSLPVTLGQPASISCKSSQSLLFSDGKTYLNWLQQRPGQSPRRLIYLVSKLDSGVPDRFSGSGSGTDFTLKISRVEAEDVGVYYCWQGTHFPQTFGGGTKVEIK for me?
203
